Assay: Atogepant-itraconazole drug interaction study: atogepant plasma PK
Assay type: in vivo, human
Conditions: both sexes, human, plasma, oral; Treatment B: atogepant 60 mg + steady state itraconazole 200 mg; read-out: Vz/F
assay-endpoint: Vd/F (L)
Just the number please, in L, no unit attached.

Fill in: Vd/F of "C[C@@H]1[C@H](c2c(F)ccc(F)c2F)C[C@H](NC(=O)c2cnc3c(c2)C[C@@]2(C3)C(=O)Nc3ncccc32)C(=O)N1CC(F)(F)F" is ___
73.4

###

Assay: Food effect study (high-fat meal), atogepant IR tablet: plasma PK
Type: in vivo, human
Details: both sexes, human, plasma, oral, 60 mg, Study Intervention B: 1 × 60 mg IR tablet, fasted; read-out: Vz/F
assay-endpoint: Vd/F (L)
Just the number please, in L, no unit attached.

Fill in: Vd/F of C[C@@H]1[C@H](c2c(F)ccc(F)c2F)C[C@H](NC(=O)c2cnc3c(c2)C[C@@]2(C3)C(=O)Nc3ncccc32)C(=O)N1CC(F)(F)F [atogepant] is ___
299

###

Test: Hepatic impairment study: atogepant plasma PK
Format: in vivo, human
Details: human, plasma, oral, 60 mg, severe hepatic impairment; read-out: AUC0-t Geometric Least Squares Mean, Test
assay-endpoint: AUC(0-t) (ng·h/mL)
Just the number please, in ng·h/mL, no unit attached.

Fill in: AUC(0-t) of "C[C@@H]1[C@H](c2c(F)ccc(F)c2F)C[C@H](NC(=O)c2cnc3c(c2)C[C@@]2(C3)C(=O)Nc3ncccc32)C(=O)N1CC(F)(F)F" is ___
3600

###

Assay: Hepatic impairment study: atogepant plasma PK
Assay type: in vivo, human
Conditions: human, plasma, po, 60 mg, normal hepatic function, single 60 mg oral dose; read-out: Vz/F
assay-endpoint: Vd/F (L)
Just the number please, in L, no unit attached.

Fill in: Vd/F of C[C@@H]1[C@H](c2c(F)ccc(F)c2F)C[C@H](NC(=O)c2cnc3c(c2)C[C@@]2(C3)C(=O)Nc3ncccc32)C(=O)N1CC(F)(F)F [atogepant] is ___
301

###

Experiment: Hepatic impairment study: atogepant plasma PK
Assay type: in vivo, human
Settings: human, plasma, po, 60 mg, normal hepatic function, single 60 mg oral dose; read-out: AUC0-∞
assay-endpoint: AUC(0-inf)

Fill in: AUC(0-inf) of "C[C@@H]1[C@H](c2c(F)ccc(F)c2F)C[C@H](NC(=O)c2cnc3c(c2)C[C@@]2(C3)C(=O)Nc3ncccc32)C(=O)N1CC(F)(F)F" is ___
2780 ng·h/mL

###

Experiment: Atogepant-topiramate interaction study, cohort 1: atogepant steady-state PK
Format: in vivo, human
Details: both sexes, human, plasma, Atogepant and Topiramate; read-out: Cmax,ss Geometric LSM
assay-endpoint: Cmax
Field note: include the unit after the figure.

Fill in: Cmax of C[C@@H]1[C@H](c2c(F)ccc(F)c2F)C[C@H](NC(=O)c2cnc3c(c2)C[C@@]2(C3)C(=O)Nc3ncccc32)C(=O)N1CC(F)(F)F [atogepant] is ___
406 ng/mL

###

Assay: Food effect study (high-fat meal), atogepant IR tablet: plasma PK
Type: in vivo, human
Conditions: both sexes, human, plasma, oral, 60 mg, Fasted (Ref); read-out: AUC0-inf GLSM
assay-endpoint: AUC(0-inf) (ng·h/mL)
Just the number please, in ng·h/mL, no unit attached.

Fill in: AUC(0-inf) of C[C@@H]1[C@H](c2c(F)ccc(F)c2F)C[C@H](NC(=O)c2cnc3c(c2)C[C@@]2(C3)C(=O)Nc3ncccc32)C(=O)N1CC(F)(F)F [atogepant] is ___
3160

###

Assay: Atogepant-rifampin drug interaction study: atogepant plasma PK
Format: in vivo, human
Settings: both sexes, human, plasma, oral, Treatment B1: atogepant 60 mg + single-dose rifampin 600 mg; read-out: Cmax Geometric LSM, Test
assay-endpoint: Cmax (ng/mL)
Just the number please, in ng/mL, no unit attached.

Fill in: Cmax of "C[C@@H]1[C@H](c2c(F)ccc(F)c2F)C[C@H](NC(=O)c2cnc3c(c2)C[C@@]2(C3)C(=O)Nc3ncccc32)C(=O)N1CC(F)(F)F" is ___
1440

###

Assay: Food effect study (high-fat meal), atogepant IR tablet: plasma PK
Type: in vivo, human
Settings: both sexes, human, plasma, oral, 60 mg, Study Intervention B: 1 × 60 mg IR tablet, fasted; read-out: AUC0-t
assay-endpoint: AUC(0-t) (ng·h/mL)
Just the number please, in ng·h/mL, no unit attached.

Fill in: AUC(0-t) of "C[C@@H]1[C@H](c2c(F)ccc(F)c2F)C[C@H](NC(=O)c2cnc3c(c2)C[C@@]2(C3)C(=O)Nc3ncccc32)C(=O)N1CC(F)(F)F" is ___
3460

###

Assay: Hepatic impairment study: atogepant plasma PK
Assay type: in vivo, human
Settings: human, plasma, po, 60 mg, moderate hepatic impairment, single 60 mg oral dose
assay-endpoint: half-life (h)
Just the number please, in h, no unit attached.

Fill in: half-life of "C[C@@H]1[C@H](c2c(F)ccc(F)c2F)C[C@H](NC(=O)c2cnc3c(c2)C[C@@]2(C3)C(=O)Nc3ncccc32)C(=O)N1CC(F)(F)F" is ___
11.9

###

Assay: Food effect study (high-fat meal), atogepant IR tablet: plasma PK
Format: in vivo, human
Details: both sexes, human, plasma, oral, 60 mg, fed vs fasted; read-out: Tmax Median of Paired Differences (Test Minus Reference)
assay-endpoint: Tmax
Field note: include the unit after the figure.

Fill in: Tmax of "C[C@@H]1[C@H](c2c(F)ccc(F)c2F)C[C@H](NC(=O)c2cnc3c(c2)C[C@@]2(C3)C(=O)Nc3ncccc32)C(=O)N1CC(F)(F)F" is ___
30 min

###

Assay: Atogepant-itraconazole drug interaction study: atogepant plasma PK
Type: in vivo, human
Conditions: both sexes, human, plasma, oral; Treatment A: atogepant 60 mg single dose alone, fasted
assay-endpoint: AUC(0-inf) (ng·h/mL)
Just the number please, in ng·h/mL, no unit attached.

Fill in: AUC(0-inf) of "C[C@@H]1[C@H](c2c(F)ccc(F)c2F)C[C@H](NC(=O)c2cnc3c(c2)C[C@@]2(C3)C(=O)Nc3ncccc32)C(=O)N1CC(F)(F)F" is ___
3470

###

Test: Hepatic impairment study: atogepant plasma PK
Format: in vivo, human
Settings: human, plasma, oral, 60 mg, moderate hepatic impairment; read-out: AUC0-∞ Geometric Least Squares Mean, Test
assay-endpoint: AUC(0-inf) (ng·h/mL)
Just the number please, in ng·h/mL, no unit attached.

Fill in: AUC(0-inf) of C[C@@H]1[C@H](c2c(F)ccc(F)c2F)C[C@H](NC(=O)c2cnc3c(c2)C[C@@]2(C3)C(=O)Nc3ncccc32)C(=O)N1CC(F)(F)F [atogepant] is ___
3030

###

Assay: Atogepant-rifampin drug interaction study: atogepant plasma PK
Type: in vivo, human
Conditions: both sexes, human, plasma, oral, Treatment B1: atogepant 60 mg + single-dose rifampin 600 mg; read-out: AUC0-24 Geometric LSM, Test
assay-endpoint: AUC(0-t) (ng·h/mL)
Just the number please, in ng·h/mL, no unit attached.

Fill in: AUC(0-t) of "C[C@@H]1[C@H](c2c(F)ccc(F)c2F)C[C@H](NC(=O)c2cnc3c(c2)C[C@@]2(C3)C(=O)Nc3ncccc32)C(=O)N1CC(F)(F)F" is ___
7630

###

Assay: Atogepant-rifampin drug interaction study: atogepant plasma PK
Type: in vivo, human
Details: both sexes, human, plasma, oral, Treatment B2: atogepant 60 mg + multiple-dose rifampin 600 mg; read-out: AUC0-t
Description: The study consisted of a Screening Visit, two study periods, an end-of-treatment (EOT) visit, and a follow-up visit. […] [table] […] Relative to the time that atogepant was administered, blood samples for atogepant plasma PK were to be collected at the following times: • Days 1 and 12: 0 hour (predose) and at 0.5, 1, 1.5, 2, 3, 4, 6, 8, 12, 16, 24, 36, and 48 hours post dose. • Day 7: 0 hour (predose) and at 0.5, 1, 1.5, 2, 3, 4, 6, 8, 12, 16, and 24 hours postdose
assay-endpoint: AUC(0-t) (ng·h/mL)
Just the number please, in ng·h/mL, no unit attached.

Fill in: AUC(0-t) of "C[C@@H]1[C@H](c2c(F)ccc(F)c2F)C[C@H](NC(=O)c2cnc3c(c2)C[C@@]2(C3)C(=O)Nc3ncccc32)C(=O)N1CC(F)(F)F" is ___
1180

###

Experiment: Atogepant-rifampin drug interaction study: atogepant plasma PK
Type: in vivo, human
Details: both sexes, human, plasma, oral, atogepant + multiple dose rifampin vs atogepant alone; read-out: reduction of mean apparent T1/2 (converted)
assay-endpoint: reduction in mean apparent half-life

Fill in: reduction in mean apparent half-life of "C[C@@H]1[C@H](c2c(F)ccc(F)c2F)C[C@H](NC(=O)c2cnc3c(c2)C[C@@]2(C3)C(=O)Nc3ncccc32)C(=O)N1CC(F)(F)F" is ___
~9 h

###

Test: Food effect study (high-fat meal), atogepant IR tablet: plasma PK
Type: in vivo, human
Settings: both sexes, human, plasma, oral, 60 mg, Study Intervention B: 1 × 60 mg IR tablet, fasted; read-out: Tmax (median)
assay-endpoint: Tmax (h)
Just the number please, in h, no unit attached.

Fill in: Tmax of "C[C@@H]1[C@H](c2c(F)ccc(F)c2F)C[C@H](NC(=O)c2cnc3c(c2)C[C@@]2(C3)C(=O)Nc3ncccc32)C(=O)N1CC(F)(F)F" is ___
2.01
